Each recorded value in this set is attributed to ChEMBL document CHEMBL5331077.

- TARGET OR SYSTEM: Poly [ADP-ribose] polymerase tankyrase-1 (Homo sapiens, UniProt O95271)
- Sequence (O95271 whole entry): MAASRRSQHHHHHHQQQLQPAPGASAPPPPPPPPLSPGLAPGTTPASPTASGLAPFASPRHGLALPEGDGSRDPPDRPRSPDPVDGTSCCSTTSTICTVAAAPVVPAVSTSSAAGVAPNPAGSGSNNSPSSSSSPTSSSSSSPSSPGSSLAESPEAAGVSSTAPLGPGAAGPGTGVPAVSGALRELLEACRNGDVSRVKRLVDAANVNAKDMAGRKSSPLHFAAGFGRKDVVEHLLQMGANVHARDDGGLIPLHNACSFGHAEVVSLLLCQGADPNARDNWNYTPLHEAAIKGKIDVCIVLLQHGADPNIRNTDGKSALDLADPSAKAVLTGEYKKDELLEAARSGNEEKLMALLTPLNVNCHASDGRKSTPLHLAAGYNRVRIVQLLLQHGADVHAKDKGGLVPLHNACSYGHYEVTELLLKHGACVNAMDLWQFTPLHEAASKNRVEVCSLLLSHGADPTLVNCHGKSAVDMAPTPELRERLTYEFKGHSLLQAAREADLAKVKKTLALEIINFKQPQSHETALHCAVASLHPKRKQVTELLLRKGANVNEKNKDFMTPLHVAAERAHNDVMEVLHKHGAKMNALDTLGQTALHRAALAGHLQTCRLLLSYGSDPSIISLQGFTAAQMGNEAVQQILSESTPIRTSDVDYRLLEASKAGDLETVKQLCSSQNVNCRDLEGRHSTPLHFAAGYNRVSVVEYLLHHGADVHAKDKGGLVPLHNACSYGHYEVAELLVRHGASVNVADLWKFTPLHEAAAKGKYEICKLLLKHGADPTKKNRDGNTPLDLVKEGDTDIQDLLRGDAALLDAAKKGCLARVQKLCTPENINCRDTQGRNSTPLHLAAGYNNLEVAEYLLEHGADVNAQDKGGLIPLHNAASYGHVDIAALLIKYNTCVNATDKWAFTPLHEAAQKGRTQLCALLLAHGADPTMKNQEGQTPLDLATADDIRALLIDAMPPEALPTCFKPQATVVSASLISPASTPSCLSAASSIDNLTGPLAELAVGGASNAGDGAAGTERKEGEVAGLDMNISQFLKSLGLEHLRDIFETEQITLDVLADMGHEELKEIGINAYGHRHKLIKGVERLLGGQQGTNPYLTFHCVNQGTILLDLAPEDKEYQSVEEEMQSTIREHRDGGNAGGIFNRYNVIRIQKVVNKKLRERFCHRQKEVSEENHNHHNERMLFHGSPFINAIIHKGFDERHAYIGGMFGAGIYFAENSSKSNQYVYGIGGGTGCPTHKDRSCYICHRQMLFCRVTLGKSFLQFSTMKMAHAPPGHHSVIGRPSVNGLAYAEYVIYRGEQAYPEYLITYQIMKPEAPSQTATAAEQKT
- EXPERIMENT SUMMARY: Inhibition of TNKS1 (unknown origin) using biotinylated NAD as substrate preincubated for 30 mins followed by substrate addition and measured after 1 hr by BioTek synergy 2 microplate reader analysis
MEASURED ENDPOINT: IC50 (nM)
Please respond with the number in nM and leave the unit unwritten.

Lab note: COc1ccc2c(c1)C(CC(=O)NCCNC(=O)CCn1c(=O)[nH]c(=O)c3ccccc31)CC2=O (configuration not stated) gave IC50 of 15

Lab note: Cc1cnc(C(=O)NCCNC(=O)Cn2[nH]c(=O)c3ccccc3c2=O)cn1 gave IC50 of 47

Lab note: CNC(=O)[C@H](CNC(=O)c1cccc(COc2ccccc2C(N)=O)c1)NC(=O)COc1cc(C)cc2oc(=O)c3c(c12)CCC3 gave IC50 of 33

Lab note: O=C(NCCNC(=O)c1n[nH]c(=O)c2ccccc12)c1cccc(CN2C(=O)CNC2=O)c1 gave IC50 of 69

Lab note: CC(=O)N1CCC[C@H]1C(=O)NCCNC(=O)Cn1[nH]c(=O)c2ccccc2c1=O gave IC50 of 4900

Lab note: CNC(=O)[C@H](CNC(=O)CCn1c(=O)[nH]c(=O)c2ccccc21)NC(=O)c1cnc2ccccc2c1 gave IC50 of 0.8

Lab note: CNC(=O)[C@H](CNC(=O)Cn1[nH]c(=O)c2ccccc2c1=O)NC(=O)c1cnc(C)cn1 gave IC50 of 140

Lab note: CC(=O)N1CCC[C@H]1C(=O)NCCNC(=O)CCn1c(=O)[nH]c(=O)c2ccccc21 gave IC50 of 26000

Lab note: Cc1cc(OCC(=O)NCCNC(=O)c2cccc(COc3ccccc3C(N)=O)c2)c2c3c(c(=O)oc2c1)CCC3 gave IC50 of 2

Lab note: O=C(CCn1c(=O)[nH]c(=O)c2ccccc21)NCCNC(=O)c1cnc2ccccc2c1 gave IC50 of 8.3

Lab note: Cc1ccc2c(c1)NC(=O)C2CC(=O)NCCNC(=O)CCn1c(=O)[nH]c(=O)c2ccccc21 (configuration not stated) gave IC50 of 75

Lab note: O=C(Cc1n[nH]c(=O)c2ccccc12)OCC(=O)N1CCN(c2ccccn2)CC1 gave IC50 of 22
